tested on: Mus musculus; test: Drug level in C57BL/6J mouse at 1 mg/kg, iv measured during 5 mins to 24 hrs by LC/MS/MS method; type: ADME, organism-based; details: in vivo, read-out: Drug uptake
Below: a set of entries, each annotated with reported concentration.
State the answer as a number, implicitly in nM.

# smiles.repr, meas.value
data = [
    ("CC[C@](C)(NC(=O)[C@H]1C[C@H](O)CN1C(=O)[C@H](CO)NC(=O)c1c[nH]cn1)C(=O)N[C@@H](Cc1ccncc1)C(=O)N[C@@H](CC1CCCCC1)C(=O)N[C@@H](CC(C)(C)C)C(=O)N[C@@H](CC(N)=O)C(=O)N[C@@H](CCCCN)C(=O)NC(C)(C)C(=O)N[C@H](C(=O)N[C@@H](CCCNC(=N)N)C(=O)N[C@@H](CCC(N)=O)C(=O)N[C@@H](CCCNC(=N)N)C(=O)N[C@@H](CC1CCCCC1)C(N)=O)[C@@H](C)O", 2060),
    ("CC[C@](C)(NC(=O)[C@H]1CCCN1C(=O)[C@H](CO)NC(C)=O)C(=O)N[C@@H](Cc1ccncc1)C(=O)N[C@@H](CC1CCCCC1)C(=O)NC(C)(C)C(=O)N[C@@H](CC(N)=O)C(=O)N[C@@H](CCCCN)C(=O)NC(C)(C)C(=O)N[C@H](C(=O)N[C@@H](CCCNC(=N)N)C(=O)N[C@@H](CCC(N)=O)C(=O)N[C@@H](CCCNC(=N)N)C(=O)N[C@@H](CC1CCCCC1)C(N)=O)[C@@H](C)O", 1270),
    ("CC(=O)N[C@@H](CO)C(=O)N1CCC[C@@H]1C(=O)N[C@@H](CCCNC(=N)N)C(=O)N[C@@H](Cc1ccncc1)C(=O)N[C@@H](CC1CCCCC1)C(=O)NC(C)(C)C(=O)N[C@@H](CC(N)=O)C(=O)N[C@@H](CCCCN)C(=O)NC(C)(C)C(=O)N[C@H](C(=O)N[C@@H](CCCNC(=N)N)C(=O)N[C@@H](CCC(N)=O)C(=O)N[C@@H](CCCNC(=N)N)C(=O)N[C@@H](CC1CCCCC1)C(N)=O)[C@@H](C)O", 1060),
]

Pending compound:
What is its concentration for Mus musculus? Entry: `CC[C@](C)(NC(=O)[C@H](CC1CCCCC1)NC(=O)[C@H](Cc1ccncc1)NC(=O)[C@](C)(CC)NC(=O)[C@H]1C[C@H](O)CN1C(=O)[C@H](CO)NC(C)=O)C(=O)N[C@@H](CC(N)=O)C(=O)N[C@@H](CCCCN)C(=O)NC(C)(C)C(=O)N[C@H](C(=O)N[C@@H](CCCNC(=N)N)C(=O)N[C@@H](CCC(N)=O)C(=O)N[C@@H](CCCNC(=N)N)C(=O)N[C@@H](CC1CCCCC1)C(N)=O)[C@@H](C)O`
1660

---

molecular target: Neuropeptide Y receptor type 2 (Homo sapiens); assay: Displacement of [125I]-PYY from human neuropeptide Y2 receptor expressed in CHO cell membranes incubated for 60 mins by TopCount based method
Sequence (P49146 whole entry): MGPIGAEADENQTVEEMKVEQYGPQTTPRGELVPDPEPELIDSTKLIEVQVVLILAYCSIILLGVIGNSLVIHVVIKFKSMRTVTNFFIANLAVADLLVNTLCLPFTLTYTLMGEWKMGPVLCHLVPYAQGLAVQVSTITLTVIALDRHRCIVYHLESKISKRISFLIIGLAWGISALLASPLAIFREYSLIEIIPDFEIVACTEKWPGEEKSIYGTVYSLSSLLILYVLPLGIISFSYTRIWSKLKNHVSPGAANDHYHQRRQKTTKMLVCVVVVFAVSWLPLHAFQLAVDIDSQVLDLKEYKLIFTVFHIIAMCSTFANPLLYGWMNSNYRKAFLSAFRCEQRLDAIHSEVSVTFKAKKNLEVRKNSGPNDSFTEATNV
readout.label: pIC50
In textbook form, pIC50 equals minus log to base ten of the concentration in mol/L.

Here is how some molecules turned out for pIC50.
# smiles.repr, meas.value
rows = [
    ("CC[C@](C)(NC(=O)[C@H](CO)NC(C)=O)C(=O)N[C@@H](CCCNC(=N)N)C(=O)N[C@@H](Cc1cnc[nH]1)C(=O)N[C@@H](CC1CCCCC1)C(=O)N[C@@H](CC1CCCCC1)C(=O)N[C@@H](CC(N)=O)C(=O)N[C@@H](CC(C)C)C(=O)NC(C)(C)C(=O)N[C@H](C(=O)N[C@@H](CCCNC(=N)N)C(=O)N[C@@H](CCC(N)=O)C(=O)N[C@@H](CCCNC(=N)N)C(=O)N[C@@H](CC1CCCCC1)C(N)=O)[C@@H](C)O", 8.74),
    ("CC[C@@](C)(NC(=O)[C@H](CO)NC(C)=O)C(=O)N[C@@H](CCCNC(=N)N)C(=O)N[C@@H](Cc1cnc[nH]1)C(=O)N[C@@H](CC1CCCCC1)C(=O)N[C@@H](CC1CCCCC1)C(=O)N[C@@H](CC(N)=O)C(=O)N[C@@H](CC(C)C)C(=O)NC(C)(C)C(=O)N[C@H](C(=O)N[C@@H](CCCNC(=N)N)C(=O)N[C@@H](CCC(N)=O)C(=O)N[C@@H](CCCNC(=N)N)C(=O)N[C@@H](CC1CCCCC1)C(N)=O)[C@@H](C)O", 8.62),
    ("CC[C@](C)(NC(=O)[C@H](CC(C)C)NC(=O)[C@H](CC(N)=O)NC(=O)[C@H](CC1CCCCC1)NC(=O)[C@H](CC1CCCCC1)NC(=O)[C@H](Cc1cnc[nH]1)NC(=O)[C@H](CCCNC(=N)N)NC(=O)[C@H]1CCCN1C(=O)[C@H](CO)NC(C)=O)C(=O)N[C@H](C(=O)N[C@@H](CCCNC(=N)N)C(=O)N[C@@H](CCC(N)=O)C(=O)N[C@@H](CCCNC(=N)N)C(=O)N[C@@H](CC1CCCCC1)C(N)=O)[C@@H](C)O", 8.43),
]

Consider the molecule `CC[C@](C)(NC(=O)[C@H](CC1CCCCC1)NC(=O)[C@H](Cc1ccncc1)NC(=O)[C@](C)(CC)NC(=O)[C@H]1C[C@H](O)CN1C(=O)[C@H](CO)NC(C)=O)C(=O)N[C@@H](CC(N)=O)C(=O)N[C@@H](CCCCN)C(=O)NC(C)(C)C(=O)N[C@H](C(=O)N[C@@H](CCCNC(=N)N)C(=O)N[C@@H](CCC(N)=O)C(=O)N[C@@H](CCCNC(=N)N)C(=O)N[C@@H](CC1CCCCC1)C(N)=O)[C@@H](C)O` and give its measured pIC50.
9.34

Consider the molecule `CC[C@](C)(NC(=O)[C@H](CC1CCCCC1)NC(=O)[C@H](Cc1ccncc1)NC(=O)[C@H](CCCNC(=N)N)NC(=O)[C@H]1CCCN1C(=O)[C@H](CO)NC(C)=O)C(=O)N[C@@H](CC(N)=O)C(=O)N[C@@H](CCCCN)C(=O)NC(C)(C)C(=O)N[C@H](C(=O)N[C@@H](CCCNC(=N)N)C(=O)N[C@@H](CCC(N)=O)C(=O)N[C@@H](CCCNC(=N)N)C(=O)N[C@@H](CC1CCCCC1)C(N)=O)[C@@H](C)O` and give its measured pIC50.
9.80

Consider the molecule `CC[C@](C)(NC(=O)[C@H]1C[C@H](O)CN1C(=O)[C@H](CO)NC(C)=O)C(=O)N[C@@H](Cc1ccncc1)C(=O)N[C@@H](CC1CCCCC1)C(=O)NC(C)(C)C(=O)N[C@@H](CC(N)=O)C(=O)N[C@@H](CCCCN)C(=O)NC(C)(C)C(=O)N[C@H](C(=O)N[C@@H](CCCNC(=N)N)C(=O)N[C@@H](CCC(N)=O)C(=O)N[C@@H](CCCNC(=N)N)C(=O)N[C@@H](CC1CCCCC1)C(N)=O)[C@@H](C)O` and give its measured pIC50.
9.11

Consider the molecule `CC[C@](C)(NC(=O)[C@H](CC1CCCCC1)NC(=O)[C@H](Cc1ccncc1)NC(=O)[C@](C)(CC)NC(=O)[C@H]1C[C@H](O)CN1C(=O)[C@H](CO)NC(=O)c1c[nH]cn1)C(=O)N[C@@H](CC(N)=O)C(=O)N[C@@H](CCCCN)C(=O)NC(C)(C)C(=O)N[C@H](C(=O)N[C@@H](CCCNC(=N)N)C(=O)N[C@@H](CCC(N)=O)C(=O)N[C@@H](CCCNC(=N)N)C(=O)N[C@@H](CC1CCCCC1)C(N)=O)[C@@H](C)O` and give its measured pIC50.
9.36

Consider the molecule `CC[C@@](C)(NC(=O)[C@H](CC1CCCCC1)NC(=O)[C@H](Cc1cnc[nH]1)NC(=O)[C@H](CCCNC(=N)N)NC(=O)[C@H]1CCCN1C(=O)[C@H](CO)NC(C)=O)C(=O)N[C@@H](CC(N)=O)C(=O)N[C@@H](CC(C)C)C(=O)NC(C)(C)C(=O)N[C@H](C(=O)N[C@@H](CCCNC(=N)N)C(=O)N[C@@H](CCC(N)=O)C(=O)N[C@@H](CCCNC(=N)N)C(=O)N[C@@H](CC1CCCCC1)C(N)=O)[C@@H](C)O` and give its measured pIC50.
8.48

Consider the molecule `CC[C@](C)(NC(=O)[C@H]1CCCN1C(=O)[C@H](CO)NC(C)=O)C(=O)N[C@@H](Cc1cnc[nH]1)C(=O)N[C@@H](CC1CCCCC1)C(=O)N[C@@H](CC1CCCCC1)C(=O)N[C@@H](CC(N)=O)C(=O)N[C@@H](CC(C)C)C(=O)NC(C)(C)C(=O)N[C@H](C(=O)N[C@@H](CCCNC(=N)N)C(=O)N[C@@H](CCC(N)=O)C(=O)N[C@@H](CCCNC(=N)N)C(=O)N[C@@H](CC1CCCCC1)C(N)=O)[C@@H](C)O` and give its measured pIC50.
7.80

Consider the molecule `CC[C@](C)(NC(=O)[C@H]1C[C@H](O)CN1C(=O)[C@H](CO)NC(=O)c1c[nH]cn1)C(=O)N[C@@H](Cc1ccncc1)C(=O)N[C@@H](CC1CCCCC1)C(=O)NC(C)(C)C(=O)N[C@@H](CC(N)=O)C(=O)N[C@@H](CCCCN)C(=O)NC(C)(C)C(=O)N[C@H](C(=O)N[C@@H](CCCNC(=N)N)C(=O)N[C@@H](CCC(N)=O)C(=O)N[C@@H](CCCNC(=N)N)C(=O)N[C@@H](CC1CCCCC1)C(N)=O)[C@@H](C)O` and give its measured pIC50.
9.04
